Each entry below carries its reported inhibition.
molecular target: Beta-secretase 1 (Homo sapiens, UniProt P56817); experiment: Inhibition of human recombinant BACE1 at 0.2 uM
Sequence (P56817 whole entry): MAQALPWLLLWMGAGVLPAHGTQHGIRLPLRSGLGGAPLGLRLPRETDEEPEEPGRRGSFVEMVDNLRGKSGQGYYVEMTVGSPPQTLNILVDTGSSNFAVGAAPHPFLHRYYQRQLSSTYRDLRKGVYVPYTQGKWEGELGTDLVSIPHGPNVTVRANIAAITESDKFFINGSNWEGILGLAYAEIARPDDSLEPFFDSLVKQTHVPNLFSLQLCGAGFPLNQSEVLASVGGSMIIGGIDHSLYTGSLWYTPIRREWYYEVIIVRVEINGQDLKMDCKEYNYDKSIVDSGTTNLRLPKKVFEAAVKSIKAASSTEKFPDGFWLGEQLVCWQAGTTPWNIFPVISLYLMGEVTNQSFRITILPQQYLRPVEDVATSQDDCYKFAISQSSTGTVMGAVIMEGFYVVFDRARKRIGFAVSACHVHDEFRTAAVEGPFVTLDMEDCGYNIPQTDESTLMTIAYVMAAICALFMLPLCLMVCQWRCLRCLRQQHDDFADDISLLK
Respond numerically; units are % and should not be typed.

chemical_smiles=CC(C)C[C@H](NC(=O)[C@@H](NC(=O)[C@@H](N)CNC(=O)c1[nH]c(=O)[nH]c(=O)c1F)C(C)C)C(=O)N[C@@H](Cc1ccccc1)[C@@H](O)C(=O)Nc1cccc(-c2nn[nH]n2)c1 unit_of_measurement=% experimental_value=98
chemical_smiles=CC(C)C[C@H](NC(=O)[C@@H](NC(=O)[C@@H](N)CNC(=O)c1cccc(O)c1O)C(C)C)C(=O)N[C@@H](Cc1ccccc1)[C@@H](O)C(=O)Nc1cccc(C(=O)O)c1 unit_of_measurement=% experimental_value=75

Per the record, CC(C)C[C@H](NC(=O)[C@@H](NC(=O)[C@@H](N)CNC(=O)c1ccoc1)C(C)C)C(=O)N[C@@H](Cc1ccccc1)[C@@H](O)C(=O)Nc1cccc(C(=O)O)c1 has inhibition of 38
